- target desc: recombinant human deoxyuridine nucleotidohydrolase (dUTPase) (Homo sapiens)
- Sequence (P33316 1-164 isoform P33316-2): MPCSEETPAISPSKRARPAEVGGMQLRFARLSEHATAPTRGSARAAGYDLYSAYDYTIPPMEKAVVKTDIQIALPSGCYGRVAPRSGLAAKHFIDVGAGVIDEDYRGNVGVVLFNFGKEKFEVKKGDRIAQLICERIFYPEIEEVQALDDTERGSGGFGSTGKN
- experiment summary: fluorescence-based dUTPase inhibition assay (DNA polymerase-based dUTP detection)
- particulars: 5 ng recombinant dUTPase, 50 pmols dUTP, 37° C. for 8 mins
property label: IC50 (nM)
Give the number; nM is assumed, so skip it.

Asked: Endpoint output: IC50 of C[C@@H](NS(=O)(=O)CCCOCN1CCC(=O)NC1=O)c1cccc(OC2CCCC2)c1 . Value?
Given back: 500

----------
- target desc: recombinant human deoxyuridine nucleotidohydrolase (dUTPase) (Homo sapiens)
- Construct: made in house
- experiment summary: fluorescence-based dUTPase inhibition assay (DNA polymerase-based dUTP detection)
- Format: biochemical
- particulars: mean across three concentrations, typically 100, 50 and 25 μmol/L, compared to the in-run positive control
property label: % relative inhibition vs. positive control
Note: a bare number is incomplete; add the unit.

// known answers, use as guide
compound	test value
CC[C@@](O)(CNS(=O)(=O)C/C=C/CC1CCC(=O)NC1=O)c1ccc(F)c(OCC2CC2)c1 (some centres unmarked)	65%
CC(C)(NS(=O)(=O)C/C=C/CC1CCC(=O)NC1=O)c1ccc(F)c(OCC2CC2)c1 (centres unmarked)	26%
CC[C@@](O)(CNS(=O)(=O)CCCCC1CCC(=O)NC1=O)c1ccc(F)c(OCC2CC2)c1 (some centres unmarked)	82%
CC(C)(O)COc1cc(C2(NS(=O)(=O)CC/C=C/CN3CCC(=O)NC3=O)CC2)ccc1F	81%
CC(C)(NS(=O)(=O)CC/C=C/CC1CCC(=O)NC1=O)c1ccc(F)c(OCC2CC2)c1 (centres unmarked)	70%
CC[C@@](O)(CNS(=O)(=O)CCCNC1CCC(=O)NC1=O)c1ccc(F)c(OCC2CC2)c1 (some centres unmarked)	6%
CC(C)(NS(=O)(=O)C/C=C/CCC1CCC(=O)NC1=O)c1ccc(F)c(OCC2CC2)c1 (centres unmarked)	26%

Now look at this entry.
Asked: Endpoint output: % relative inhibition vs. positive control of CC[C@@H](NS(=O)(=O)CC/C=C/CC1CCC(=O)NC1=O)c1ccc(F)c(OCC2CC2)c1 (some centres unmarked) . Value?
Given back: 80%

----------
- target desc: recombinant human deoxyuridine nucleotidohydrolase (dUTPase) (Homo sapiens, UniProt P33316)
- Construct: made in house
- Sequence (P33316 1-164 isoform P33316-2): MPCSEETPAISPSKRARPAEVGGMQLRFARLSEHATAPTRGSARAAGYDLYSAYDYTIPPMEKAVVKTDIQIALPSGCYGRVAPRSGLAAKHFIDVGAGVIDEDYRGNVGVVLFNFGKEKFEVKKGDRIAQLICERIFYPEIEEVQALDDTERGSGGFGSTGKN
- experiment summary: fluorescence-based dUTPase inhibition assay (DNA polymerase-based dUTP detection)
- Assay type: biochemical
- particulars: mean across three concentrations, typically 100, 50 and 25 μmol/L, compared to the in-run positive control
property label: % relative inhibition vs. positive control
Note: a bare number is incomplete; add the unit.

// known answers, use as guide
compound	test value
CC(C)(NS(=O)(=O)CCCCCC1CCC(=O)NC1=O)c1ccc(F)c(OCC2CC2)c1 (stereo not drawn)	49%
CC(C)(NS(=O)(=O)CC/C=C/CC1CCC(=O)NC1=O)c1cccc(OCC2CC2)c1 (stereo not drawn)	22%
CC[C@@H](NS(=O)(=O)CCCCCC1CCC(=O)NC1=O)c1ccc(F)c(OCC2CC2)c1 (stereo partly drawn)	10%
CC(C)(NS(=O)(=O)CCC/C=C/CC1CCC(=O)NC1=O)c1ccc(F)c(OCC2CC2)c1 (stereo not drawn)	45%
C[C@@H](NS(=O)(=O)CCCOCN1CCC(=O)NC1=O)c1cccc(OC2CCCC2)c1	149%

Now look at this entry.
Asked: Endpoint output: % relative inhibition vs. positive control of CC(C)(NS(=O)(=O)CCCCCNC1CCC(=O)NC1=O)c1ccc(F)c(OCC2CC2)c1 (stereo not drawn) . Value?
Given back: 11%
